Where do these numbers come from? They come from PubChem BioAssay (NCI).

Items are presented alongside their recorded growth.
Test system: NCI-H522 lung
Assay: NCI-60 one-dose screen, 48 h (100 = growth as untreated, 0 = no growth, -100 = all killed)
Settings: 10 µM unless noted
Compounds without any hit were thinned out: in the full panel of roughly 83,000, 20% have a hit.
API: value field is a number in %; no unit string.

Recorded results for 4 compounds are shown here.
INSERT INTO assay_data (chemical_structure, tested_target, experimental_endpoint, result_value) VALUES
  ('C#CCN(C)CCCOc1ccc(NCc2ccc(C(=O)NO)cc2)cc1Cl', 'NCI-H522 lung', 'growth', 13.7),
  ('O=C(CSc1nc2ccccc2c(=O)n1-c1ccccc1)N/N=C/c1ccc(Oc2ccc(Cl)cc2)cc1', 'NCI-H522 lung', 'growth', 49.6),
  ('O=C1C(N2CCN(c3ccccc3)CC2)=C(Cl)C(=O)c2ncccc21', 'NCI-H522 lung', 'growth', -16.2),
  ('Nn1c(=O)n(-c2cccc(C(F)(F)F)c2)c(=O)c2cc(-c3ccc(F)cc3F)ccc21', 'NCI-H522 lung', 'growth', -2.03);

Q: Specify growth for CC1=C(C)C(=O)C(Nc2ccc(C)cc2)=C(Br)C1=O and stop.
A: 96.1

Q: Provide one value: measured growth of NS(=O)(=O)c1ccc(Nc2nc(N/N=C/c3ccc4c(c3)OCO4)nc(Nc3ccccc3)n2)cc1
A: 60.8

Q: Give a short answer stating reported growth for Fc1ccc2nc(-c3cnn4cccnc34)sc2c1 .
A: 93.5

Q: Item Cc1ccc(C(=O)Nc2ccc(CNCCN3CCNCC3)c(C(F)(F)F)c2)cc1C#Cc1cnc2cccnn12 : provide growth
A: -33.9

Q: Note growth for the compound shown: O=C(Nc1cc(C(F)(F)F)cc(C(F)(F)F)c1)Nc1ccc2oc(=O)ccc2c1
A: -13.5

Q: Read the entry COc1ccc(OC)c(NC(=O)CCCCCCNC(=O)C(O)(O)C(F)(F)F)c1 and write its reported growth.
A: -0.794
